Numbers sourced from patent US20250051347A1.

Listing of recorded DC50 by entry.
- TGT: androgen receptor (AR) splicing variant AR-v7 (Homo sapiens)
- Construct: The degradation activity of compounds on AR-v7 in 22RV1 cells; host or cells: 22RV1 cells
- PROTOCOL DETAILS: Degradation activity on androgen receptor splicing variant AR-v7 in 22RV1 cells (ELISA)
- Assay type: cell-based
- SETTINGS: AR-v7 degradation in 22RV1 cells, 48 h, class symbols
READOUT: DC50

COMPOUND | READOUT | OBSERVED
Cc1noc(-c2ccc(Oc3ccc(C(C)(C)c4ccc(O[C@H]5C[C@H](Nc6ccc7c(c6)C(=O)N(C6CCC(=O)NC6=O)C7=O)C5)cc4)cc3)cn2)n1 (some centres unmarked) | DC50 | 11 to 100 nM
CC(C)(c1ccc(Oc2ccc(CN3CC(F)C3)nn2)cc1)c1ccc(O[C@H]2C[C@H](Nc3ccc4c(c3)C(=O)N(C3CCC(=O)NC3=O)C4=O)C2)cc1 (some centres unmarked) | DC50 | < 10 nM
CC(C)(c1ccc(OCc2ccnc(N3CCC4(CCNC4)C3)n2)cc1)c1ccc(O[C@H]2C[C@H](Nc3ccc4c(c3)C(=O)N(C3CCC(=O)NC3=O)C4=O)C2)cc1 (some centres unmarked) | DC50 | 11 to 100 nM
CC(C)(c1ccc(OCCCCCCCOCCCOCCCNc2cccc3c2C(=O)N(C2CCC(=O)NC2=O)C3=O)cc1)c1ccc(OCc2ccnc(NS(C)(=O)=O)n2)cc1 (centres unmarked) | DC50 | 1000 to 5000 nM
O=C1CCC(N2C(=O)c3ccc(NC4CC(Oc5ccc(C6(c7ccc(OCc8ccnc(N9CC%10(COC%10)C9)n8)cc7)CCC6)cc5)C4)cc3C2=O)C(=O)N1 (centres unmarked) | DC50 | < 10 nM

* * *

Listing of recorded DC50 by entry.
- TGT: androgen receptor (AR) splicing variant AR-v7 (Homo sapiens, UniProt P10275)
- Construct: The degradation activity of compounds on AR-v7 in 22RV1 cells; host or cells: 22RV1 cells
- Sequence (P10275 1-644 isoform P10275-3): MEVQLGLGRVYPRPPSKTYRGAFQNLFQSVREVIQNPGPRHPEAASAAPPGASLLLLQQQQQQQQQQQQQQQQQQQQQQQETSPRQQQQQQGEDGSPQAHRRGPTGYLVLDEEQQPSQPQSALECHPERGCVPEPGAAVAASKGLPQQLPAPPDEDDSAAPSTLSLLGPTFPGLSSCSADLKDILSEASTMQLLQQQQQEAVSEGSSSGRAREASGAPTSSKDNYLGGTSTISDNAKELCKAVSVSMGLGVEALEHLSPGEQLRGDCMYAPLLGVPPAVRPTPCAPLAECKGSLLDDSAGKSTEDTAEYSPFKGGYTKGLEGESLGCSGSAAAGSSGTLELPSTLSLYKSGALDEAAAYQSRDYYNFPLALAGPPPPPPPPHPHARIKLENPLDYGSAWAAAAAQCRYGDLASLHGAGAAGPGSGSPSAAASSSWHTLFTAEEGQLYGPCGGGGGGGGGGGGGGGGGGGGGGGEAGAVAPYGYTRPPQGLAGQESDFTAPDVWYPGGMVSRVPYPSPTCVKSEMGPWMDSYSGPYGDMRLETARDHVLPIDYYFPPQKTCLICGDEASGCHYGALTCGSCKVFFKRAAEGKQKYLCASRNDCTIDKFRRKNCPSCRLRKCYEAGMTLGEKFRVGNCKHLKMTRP
- PROTOCOL DETAILS: Degradation activity on androgen receptor splicing variant AR-v7 in 22RV1 cells (ELISA)
- Format: cell-based
- SETTINGS: AR-v7 degradation in 22RV1 cells, 48 h, class symbols

MOLECULE | DC50
CC(C)(c1ccc(Oc2ccc(N3CC4(COC4)C3)nn2)cc1)c1ccc(O[C@H]2C[C@@H](Nc3ccc4c(c3)C(=O)N(C3CCC(=O)NC3=O)C4=O)C2)cc1 (stereo partly shown) | 11 to 100 nM
CC(C)(c1ccc(Oc2cncnc2)cc1)c1ccc(O[C@H]2C[C@H](Nc3ccc4c(c3)C(=O)N(C3CCC(=O)NC3=O)C4=O)C2)cc1 (stereo partly shown) | < 10 nM
CN(C)C1CN(c2nccc(COc3ccc(C(C)(C)c4ccc(O[C@H]5C[C@@H](Nc6ccc7c(c6)C(=O)N(C6CCC(=O)NC6=O)C7=O)C5)cc4)cc3)n2)C1 (stereo partly shown) | < 10 nM
CC(C)(c1ccc(Oc2ccc(-n3nccn3)nc2)cc1)c1ccc(O[C@H]2C[C@H](Nc3ccc4c(c3)CN(C3CCC(=O)NC3=O)C4=O)C2)cc1 (stereo partly shown) | < 10 nM
CC(C)(c1ccc(OCc2ccnc(N3CC[C@H](O)C3)n2)cc1)c1ccc(O[C@H]2C[C@@H](Nc3ccc4c(c3)C(=O)N(C3CCC(=O)NC3=O)C4=O)C2)cc1 (stereo partly shown) | < 10 nM
Cc1cncc(Oc2ccc(C(C)(C)c3ccc(O[C@H]4C[C@@H](Nc5ccc6c(c5)C(=O)N(C5CCC(=O)NC5=O)C6=O)C4)cc3)cc2)n1 (stereo partly shown) | 11 to 100 nM
CC(C)[C@H](COc1ccc(C(C)(C)c2ccc(OCc3ccnc(N4CC5(COC5)C4)n3)cc2)cc1)Nc1ccc2c(c1)C(=O)N(C1CCC(=O)NC1=O)C2=O (stereo partly shown) | 1000 to 5000 nM
CC(=O)c1nccc(COc2ccc(C3(c4ccc(OCCCNc5ccc6c(c5)C(=O)N(C5CCC(=O)NC5=O)C6=O)cc4)CCC3)cc2)n1 (stereo not shown) | < 10 nM
CC(C)(c1ccc(Oc2cc(-n3nccn3)ncn2)cc1)c1ccc(O[C@H]2C[C@H](Nc3ccc4c(c3)C(=O)N(C3CCC(=O)NC3=O)C4=O)C2)cc1 (stereo partly shown) | < 10 nM
CC(=O)c1nccc(COc2ccc(C(C)(C)c3ccc(OC[C@H]4CC[C@H](Nc5ccc6c(c5)C(=O)N(C5CCC(=O)NC5=O)C6=O)CC4)cc3)cc2)n1 (stereo partly shown) | 1000 to 5000 nM
COC(=O)c1nccc(COc2ccc(C(C)(C)c3ccc(OCCCNc4ccc5c(c4)C(=O)N(C4CCC(=O)NC4=O)C5=O)cc3)cc2)n1 (stereo not shown) | 1000 to 5000 nM
CC(C)(c1ccc(OCCCNc2ccc3c(c2)C(=O)N(C2CCC(=O)NC2=O)C3=O)cc1)c1ccc(OCc2nc(C(=O)N3CCOCC3)no2)cc1 (stereo not shown) | 11 to 100 nM
CC(C)(c1ccc(Oc2ccnc(-n3ccnn3)c2)cc1)c1ccc(O[C@H]2C[C@H](Nc3ccc4c(c3)C(=O)N(C3CCC(=O)NC3=O)C4=O)C2)cc1 (stereo partly shown) | 11 to 100 nM
CCC(CC)(c1ccc(Oc2cnc(C(C)=O)cn2)cc1)c1ccc(O[C@H]2C[C@H](Nc3ccc4c(c3)C(=O)N(C3CCC(=O)NC3=O)C4=O)C2)cc1 (stereo partly shown) | < 10 nM
CC(C)(c1ccc(OCc2ccnc(N3CCC4(CNC4)C3)n2)cc1)c1ccc(O[C@H]2C[C@H](Nc3ccc4c(c3)C(=O)N(C3CCC(=O)NC3=O)C4=O)C2)cc1 (stereo partly shown) | 11 to 100 nM
Cc1nnc(-c2ccc(Oc3ccc(C(C)(C)c4ccc(O[C@H]5C[C@H](Nc6ccc7c(c6)C(=O)N(C6CCC(=O)NC6=O)C7=O)C5)cc4)cc3)nn2)o1 (stereo partly shown) | 11 to 100 nM
CC(C)(c1ccc(OCCCN2CCN(CC3CCN(CC4CN(c5ccc6c(c5)C(=O)N(C5CCC(=O)NC5=O)C6=O)C4)CC3)CC2)cc1)c1ccc(OCc2ccnc(NS(C)(=O)=O)n2)cc1 (stereo not shown) | 1000 to 5000 nM
CC(C)(c1ccc(Oc2ccc(N3CC4(COC4)C3)nc2)cc1)c1ccc(O[C@H]2C[C@H](Nc3ccc4c(c3)C(=O)N(C3CCC(=O)NC3=O)C4=O)C2)cc1 (stereo partly shown) | 11 to 100 nM
CC(=O)c1ncc(Oc2ccc(C3(c4ccc(O[C@H]5C[C@H](Nc6ccc7c(c6)C(=O)N(C6CCC(=O)NC6=O)C7=O)C5)cc4)CCCC3)cc2)cn1 (stereo partly shown) | < 10 nM
CC(C)(c1ccc(Oc2cnc(C#N)nc2)cc1)c1ccc(O[C@H]2C[C@H](Nc3ccc4c(c3)C(=O)N(C3CCC(=O)NC3=O)C4=O)C2)cc1 (stereo partly shown) | < 10 nM
CN1CCN(c2ccc(Oc3ccc(C(C)(C)c4ccc(O[C@H]5C[C@H](Nc6ccc7c(c6)C(=O)N(C6CCC(=O)NC6=O)C7=O)C5)cc4)cc3)nn2)CC1 (stereo partly shown) | < 10 nM
Cc1nc(-c2ncc(Oc3ccc(C(C)(C)c4ccc(OC[C@@H]5CCN5c5ccc6c(c5)C(=O)N(C5CCC(=O)NC5=O)C6=O)cc4)cc3)cn2)no1 (stereo partly shown) | 11 to 100 nM

* * *

- TGT: androgen receptor (AR) splicing variant AR-v7 (Homo sapiens, UniProt P10275)
- Construct: The degradation activity of compounds on AR-v7 in 22RV1 cells; host or cells: 22RV1 cells
- PROTOCOL DETAILS: Degradation activity on androgen receptor splicing variant AR-v7 in 22RV1 cells (ELISA)
- Format: cell-based
- SETTINGS: AR-v7 degradation in 22RV1 cells, 48 h, class symbols
READOUT: DC50

COMPOUND | OBSERVED
CC(C)(c1ccc(OCCCNc2ccc3c(c2)C(=O)N(C2CCC(=O)NC2=O)C3=O)cc1)c1ccc(OCc2ccnc(-n3cncn3)n2)cc1 (stereo not shown) | 11 to 100 nM
CC(C)(c1ccc(Oc2cc(F)cnc2-n2ccnn2)cc1)c1ccc(O[C@H]2C[C@H](Nc3ccc4c(c3)C(=O)N(C3CCC(=O)NC3=O)C4=O)C2)cc1 (stereo partly shown) [Example 517] | < 10 nM
CC(C)(c1ccc(OCc2ccnc(OC3CCNCC3)n2)cc1)c1ccc(O[C@H]2C[C@@H](Nc3ccc4c(c3)C(=O)N(C3CCC(=O)NC3=O)C4=O)C2)cc1 (stereo partly shown) | 11 to 100 nM
CCNC(=O)c1nccc(COc2ccc(C(C)(C)c3ccc(OC4CC(Nc5ccc6c(c5)C(=O)N(C5CCC(=O)NC5=O)C6=O)C4)cc3)cc2)n1 (stereo not shown) | 11 to 100 nM
CCC(CC)(c1ccc(Oc2cnc(C(C)=O)nc2)cc1)c1ccc(O[C@H]2C[C@H](Nc3ccc4c(c3)C(=O)N(C3CCC(=O)NC3=O)C4=O)C2)cc1 (stereo partly shown) | < 10 nM
Cc1nccc(Oc2ccc(C(C)(C)c3ccc(O[C@H]4C[C@H](Nc5ccc6c(c5)C(=O)N(C5CCC(=O)NC5=O)C6=O)C4)cc3)cc2)n1 (stereo partly shown) | < 10 nM
CC(C)(c1ccc(Oc2cnc(CO)nc2)cc1)c1ccc(O[C@H]2C[C@H](Nc3ccc4c(c3)C(=O)N(C3CCC(=O)NC3=O)C4=O)C2)cc1 (stereo partly shown) | < 10 nM
CC(C)(c1ccc(OCc2ccnc(N3CCC4(CCNC4)CC3)n2)cc1)c1ccc(O[C@H]2C[C@@H](Nc3ccc4c(c3)C(=O)N(C3CCC(=O)NC3=O)C4=O)C2)cc1 (stereo partly shown) | 11 to 100 nM
CC(C)(c1ccc(OCc2nccc(N3CC4(COC4)C3)n2)cc1)c1ccc(O[C@H]2C[C@@H](Nc3ccc4c(c3)C(=O)N(C3CCC(=O)NC3=O)C4=O)C2)cc1 (stereo partly shown) | 11 to 100 nM
CC(C)(c1ccc(CNC2CN(c3ccc4c(c3)C(=O)N(C3CCC(=O)NC3=O)C4=O)C2)cc1)c1ccc(OCc2ccnc(N3CC4(COC4)C3)n2)cc1 (stereo not shown) | 11 to 100 nM
CC(C)(c1ccc(Oc2cnc(-n3nccn3)c(Cl)c2)cc1)c1ccc(O[C@H]2C[C@H](Nc3ccc4c(c3)C(=O)N(C3CCC(=O)NC3=O)C4=O)C2)cc1 (stereo partly shown) | 11 to 100 nM
CC(C)(c1ccc(NC2CC(Nc3ccc4c(c3)C(=O)N(C3CCC(=O)NC3=O)C4=O)C2)cc1)c1ccc(OCc2ccnc(N3CC4(COC4)C3)n2)cc1 (stereo not shown) | < 10 nM
CC(C)(c1ccc(OCCCNc2ccc3c(c2)C(=O)N(C2CCC(=O)NC2=O)C3=O)cc1)c1ccc(OCc2nc(C(N)=O)cs2)cc1 (stereo not shown) | 11 to 100 nM
Cc1nc(-c2ccc(Oc3ccc(C4(c5ccc(O[C@H]6C[C@H](Nc7ccc8c(c7)C(=O)N(C7CCC(=O)NC7=O)C8=O)C6)cc5)CC4)cc3)nn2)no1 (stereo partly shown) | 11 to 100 nM
CC(C)(c1ccc(OCc2ccnc(N3CC4(CCOC4)C3)n2)cc1)c1ccc(O[C@H]2C[C@@H](Nc3ccc4c(c3)C(=O)N(C3CCC(=O)NC3=O)C4=O)C2)cc1 (stereo partly shown) | < 10 nM
Cc1cnc(N2CC3(COC3)C2)nc1COc1ccc(C(C)(C)c2ccc(O[C@H]3C[C@@H](Nc4ccc5c(c4)C(=O)N(C4CCC(=O)NC4=O)C5=O)C3)cc2)cc1 (stereo partly shown) | 11 to 100 nM
CC(C)(c1ccc(OCc2ccnc(-n3cc(F)cn3)n2)cc1)c1ccc(O[C@H]2C[C@@H](Nc3ccc4c(c3)C(=O)N(C3CCC(=O)NC3=O)C4=O)C2)cc1 (stereo partly shown) | 11 to 100 nM
CC(C)(c1ccc(Oc2ccc(-n3nccn3)nn2)cc1)c1ccc(O[C@H]2C[C@H](Nc3ccc4c(c3)C(=O)N(C3CCC(=O)NC3=O)C4=O)C2)cc1 (stereo partly shown) | < 10 nM
CC(C)(c1ccc(OCCCNc2ccc3c(c2)C(=O)N(C2CCC(=O)NC2=O)C3=O)cc1)c1ccc(OCc2nc(C(N)=O)no2)cc1 (stereo not shown) | 11 to 100 nM
CC(O)c1ncc(Oc2ccc(C(C)c3ccc(O[C@H]4C[C@H](Nc5ccc6c(c5)C(=O)N(C5CCC(=O)NC5=O)C6=O)C4)cn3)cc2)cn1 (stereo partly shown) | < 10 nM
CC(O)c1nccc(COc2ccc(C(C)(C)c3ccc(OCCCNc4cccc5c4C(=O)N(C4CCC(=O)NC4=O)C5=O)cc3)cc2)n1 (stereo not shown) | 1000 to 5000 nM
CC(=O)c1cnc(Oc2ccc(C(C)(C)c3ccc(O[C@H]4C[C@H](Nc5ccc6c(c5)C(=O)N(C5CCC(=O)NC5=O)C6=O)C4)cc3)cc2)cn1 (stereo partly shown) | < 10 nM
